So I've got a bunch of compounds here, and I need their IC50 values.
Target of assay: [35S]-TBPS binding, rat brain cortical membranes
Assay procedure: Steroid inhibition of [35S]-TBPS binding
Stated conditions: 3 nM [35S]-TBPS, in the presence of 5 mM GABA

// returns reported IC50 for input COC[C@@]1(O)CC[C@H]2[C@H](CC[C@@H]3[C@@H]2CC[C@@]2(C)[C@H]3CC[C@]2(O)[C@H](C)Cn2cc(C#N)cn2)C1 [Example 353] 1000 to 10000 nM

Same lookup for COC[C@@]1(O)CC[C@H]2[C@@H](CC[C@@H]3[C@@H]2CC[C@]2(C)[C@@H](CCn4ccnn4)CC[C@@H]32)C1 [Example 298] , please. < 100 nM

Query C[C@H](Cc1ccc(C(F)(F)F)nc1)[C@H]1CC[C@H]2[C@@H]3CC[C@@H]4C[C@](C)(O)CC[C@]4(C)[C@H]3CC[C@]12C [Example 426] next 100 to 1000 nM

C[C@@H](Cc1nc(C(F)(F)F)cs1)[C@H]1CC[C@H]2[C@@H]3CC[C@@H]4C[C@](C)(O)CC[C@@H]4[C@H]3CC[C@]12C [Example 449] ? < 100 nM

Follow-up entry: CCC[C@@]1(O)CC[C@@]2(C)[C@H](CC[C@@H]3[C@@H]2CC[C@]2(C)[C@@H]([C@H](C)Cn4nnnc4C)CC[C@@H]32)C1 [Example 316] < 100 nM

Same thing, different compound: CCOC[C@@]1(O)CC[C@@]2(C)[C@H](CC[C@@H]3[C@@H]2CC[C@]2(C)[C@@H]([C@@H](C)N[C@@H](C)c4ccccc4)CC[C@@H]32)C1 [Example 211] 100 to 1000 nM

And for CCC[C@@]1(O)CC[C@H]2[C@@H](CC[C@@H]3[C@@H]2CC[C@]2(C)[C@@H]([C@H](C)Cn4nnc(C)n4)CC[C@@H]32)C1 [Example 330] ? ≥ 10000 nM

Item: C[C@@H]([C@H]1CC[C@H]2[C@@H]3CC[C@@H]4C[C@](C)(O)CC[C@@H]4[C@H]3CC[C@]12C)N(C)C(=O)c1ccccc1 [Example 19] 1000 to 10000 nM
